# TARGET UNDER TEST: Neuronal acetylcholine receptor subunit alpha-7 (Rattus norvegicus)
# Sequence (Q05941 whole entry): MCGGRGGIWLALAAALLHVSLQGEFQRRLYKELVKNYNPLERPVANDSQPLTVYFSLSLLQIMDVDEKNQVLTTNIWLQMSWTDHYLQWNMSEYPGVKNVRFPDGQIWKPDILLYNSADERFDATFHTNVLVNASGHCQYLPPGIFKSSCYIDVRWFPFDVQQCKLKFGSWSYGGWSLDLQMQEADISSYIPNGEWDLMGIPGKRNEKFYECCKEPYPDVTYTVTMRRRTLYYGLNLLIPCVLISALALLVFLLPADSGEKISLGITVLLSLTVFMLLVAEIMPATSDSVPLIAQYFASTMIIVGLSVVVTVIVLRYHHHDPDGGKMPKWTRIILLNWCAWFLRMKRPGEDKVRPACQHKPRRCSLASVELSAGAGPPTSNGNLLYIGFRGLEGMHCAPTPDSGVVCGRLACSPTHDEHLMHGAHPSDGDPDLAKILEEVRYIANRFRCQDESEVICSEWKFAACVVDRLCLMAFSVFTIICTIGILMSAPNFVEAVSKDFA
# EXPERIMENT DESCRIPTION: Antagonist activity at rat alpha7 nAChR expressed in Xenopus laevis oocytes assessed as inhibition of acetylcholine-induced mean current response by two-electrode voltage clamp electrophysiology assay
Could you please report measured pIC50 for the items listed next?
API: returns pIC50 as number; meaning -log10 of concentration in mol/L.

Entry c1cc(-c2cncc([C@H]3C[C@H]4CC[C@H]3N4)c2)ccn1 (racemic) ; pIC50 = 3.75

Entry Fc1ccc(-c2cncc([C@H]3C[C@H]4CC[C@H]3N4)c2)cn1 (racemic) ; pIC50 = 4.22

Entry Clc1cc(-c2cncc([C@H]3C[C@H]4CC[C@H]3N4)c2)ccn1 (racemic) ; pIC50 = 4.01

Entry COc1ccc(-c2cncc([C@H]3C[C@H]4CC[C@H]3N4)c2)cn1 (racemic) ; pIC50 = 4.52

Entry COc1cc(-c2cncc([C@H]3C[C@H]4CC[C@H]3N4)c2)ccn1 (racemic) ; pIC50 = 3.94

Entry c1cncc(-c2cncc([C@H]3C[C@H]4CC[C@H]3N4)c2)c1 (racemic) ; pIC50 = 3.93

Entry Fc1cc(-c2cncc([C@H]3C[C@H]4CC[C@H]3N4)c2)ccn1 (racemic) ; pIC50 = 3.63

Entry Clc1ccc(-c2cncc([C@H]3C[C@H]4CC[C@H]3N4)c2)cn1 (racemic) ; pIC50 = 4.18

* * *

# TARGET UNDER TEST: Neuronal acetylcholine receptor; alpha4/beta2 (Rattus norvegicus) (UniProt P09483+P12390)
# EXPERIMENT DESCRIPTION: Agonist activity at rat alpha4beta2 nAChR expressed in Xenopus laevis oocytes assessed as mean current response at 100 uM by two-electrode voltage clamp electrophysiology assay relative to acetylcholine
# Format: cell-based
Could you please report measured Activity for the items listed next?
Please respond with the number in % and leave the unit unwritten.

Entry c1cnc2cc3c(cc2n1)[C@@H]1CNC[C@H]3C1 [VARENICLINE] ; Activity = 13

Entry Fc1ccc(-c2cncc([C@H]3C[C@H]4CC[C@H]3N4)c2)cn1 (racemic) ; Activity = 0

Entry COc1ccc(-c2cncc([C@H]3C[C@H]4CC[C@H]3N4)c2)cn1 (racemic) ; Activity = 0

* * *

# TARGET UNDER TEST: Neuronal acetylcholine receptor subunit alpha-7 (Rattus norvegicus)
# EXPERIMENT DESCRIPTION: Antagonist activity at rat alpha7 nAChR expressed in Xenopus laevis oocytes assessed as inhibition of acetylcholine-induced mean current response by measuring remaining current at 100 uM by two-electrode voltage clamp electrophysiology assay relative to control; values are per cent of control
MEASURE: residual activity (%)
Please respond with the number in % and leave the unit unwritten.

Entry Fc1ccc(-c2cncc([C@H]3C[C@H]4CC[C@H]3N4)c2)cn1 (racemic) ; residual activity = 36

Entry c1cncc(-c2cncc([C@H]3C[C@H]4CC[C@H]3N4)c2)c1 (racemic) ; residual activity = 59

Entry Clc1ccc(-c2cncc([C@H]3C[C@H]4CC[C@H]3N4)c2)cn1 (racemic) ; residual activity = 38

Entry Nc1ccc(-c2cncc([C@H]3C[C@H]4CC[C@H]3N4)c2)cn1 (racemic) ; residual activity = 46

* * *

Could you please report measured Activity for the items listed next?
# TARGET UNDER TEST: Neuronal acetylcholine receptor; alpha3/beta4 (Rattus norvegicus) (UniProt P04757+P12392)
# EXPERIMENT DESCRIPTION: Agonist activity at rat alpha3beta4 nAChR expressed in Xenopus laevis oocytes assessed as mean current response at 100 uM by two-electrode voltage clamp electrophysiology assay relative to acetylcholine
# Type: cell-based
Please respond with the number in % and leave the unit unwritten.

Entry COc1ccc(-c2cncc([C@H]3C[C@H]4CC[C@H]3N4)c2)cn1 (racemic) ; Activity = 2.4

Entry Clc1cc(-c2cncc([C@H]3C[C@H]4CC[C@H]3N4)c2)ccn1 (racemic) ; Activity = 6.5

Entry c1cnc2cc3c(cc2n1)[C@@H]1CNC[C@H]3C1 [VARENICLINE] ; Activity = 66
